Please go through the items and note down their melting point.
All answers are understood in °C, so give the number only.

Sample CC1CC=CC2(O1)OC1CC(=O)OC1C1(O)C(=O)c3ccccc3C(=O)C21O (stereo not drawn) — what was its melting point?
238

Please answer likewise for O=C1CC(C(F)(F)F)=NN1c1ccccc1
193

Please answer likewise for CC12CCC(=O)N1C(c1ccccc1)CO2 (stereo not drawn)
125

Please answer likewise for CN(C)C(=O)c1ccccc1
44

Please answer likewise for O=[N+]([O-])c1ccc(Br)c(C(F)(F)F)c1
43

Please answer likewise for Nc1cc(F)ccc1C(F)(F)F
31

Please answer likewise for O=[N+]([O-])c1cccc(C2OCCO2)c1
54

Please answer likewise for NC(=O)OCCCc1ccccc1
102

Please answer likewise for O=c1cc[nH]c(=O)o1
156

Please answer likewise for CC(C)(Cc1ccc(F)cc1)N=Cc1ccccc1
44

Please answer likewise for O=C(O)c1ccc(O)c([N+](=O)[O-])c1
230

Please answer likewise for CC(C)(C)OC(=O)N1CC(=O)C1
51

====

// returns Not fulfilled unless melting point is strictly below 20 °C, in which case Fulfilled

Hello, I'm reviewing records and need to know if melting point of O=C(Cl)c1c(Cl)cccc1Cl is below 20 °C. Could you check?
Fulfilled

Please answer likewise for CCCCCCCCCC(=O)CCCCCC
Not fulfilled

Please answer likewise for FC(F)(F)CBr
Fulfilled

Please answer likewise for Cn1ccc2ccc(C(=O)O)cc21
Not fulfilled

Please answer likewise for Brc1n[nH]c(Br)n1
Not fulfilled

Please answer likewise for C1CCCCCCCCCC1
Fulfilled

====

Respond with T for melting point values of 90 °C and above, F for values below.

Would you say O=C(Br)c1ccccc1 shows melting point at minimum 90 °C?
F

Please answer likewise for FC(F)(Cl)C(Cl)(Cl)Cl
F

Please answer likewise for Cc1ccc(NC(=O)CC(C)c2ccc(C)cc2)cc1 (stereo not given)
T

Please answer likewise for Cn1c(=O)c(C2=NNC(=O)C2=CNc2ccccn2)c(O)c2ccccc21
T

Please answer likewise for CN(C)c1nncc(-c2cnnc(N(C)C)n2)n1
T

Please answer likewise for O=C1C2(CCCCC2)C(=O)C12CCCCC2
T

Please answer likewise for OCC#CC#CCO
T

Please answer likewise for C=CCCCC=C
F

Please answer likewise for Clc1nccc2sccc12
T

Please answer likewise for Oc1ccnc2c(C(F)(F)F)cccc12
T

Please answer likewise for O=C1c2ccccc2C(=O)N1CCS(=O)(=O)Cl
T

Please answer likewise for Cc1noc(-c2ccccc2)c1CBr
F

Please answer likewise for CCCCC(CC)CNCC(CC)CCCC (stereo not given)
F

Please answer likewise for CC(=O)Nc1cccc(NCC(=O)c2ccccc2)c1
T

Please answer likewise for CCCCOP(=O)(O)OCCCC
F

====

// returns No unless melting point is strictly below 100 °C, in which case Yes

Hello, I'm reviewing records and need to know if melting point of C=CCN(CC=C)c1c(C)cc(OC(=O)NC)cc1C is below 100 °C. Could you check?
Yes

Please answer likewise for FC(F)(F)C(F)(Br)C(F)(F)Br (stereo not given)
Yes

Please answer likewise for CC(=O)Oc1c(-c2ccccc2)[nH]c2cc([N+](=O)[O-])ccc12
No

Please answer likewise for CC(=O)N(C)c1cccc(N(C)C(C)=O)c1
No

Please answer likewise for CCCCS(=O)(=O)NC(Cc1ccc(OCCCCC2CCNCC2)cc1)C(=O)O (stereo not given)
No

Please answer likewise for CC1(C)C(=O)OC2=C(CCCC2)C1c1ccccc1 (stereo not given)
Yes

Please answer likewise for Cc1c(C)c2ccccc2c2ccccc12
No

Please answer likewise for NCCCOCCCCOCCCN
Yes

Please answer likewise for CC(=O)OC(c1ccccc1)C(Cl)(Cl)Cl (stereo not given)
Yes

Please answer likewise for FC(F)C(F)(F)OCC(Cn1cncn1)c1ccc(Cl)cc1Cl (stereo not given)
Yes

Please answer likewise for CN(C)c1cccc2cccc(N(C)C)c12
Yes

Please answer likewise for Cc1cc2c(o1)-c1c(oc3ccc(Cl)cc13)CCC2(C)c1ccccc1 (stereo not given)
No

Please answer likewise for O=C1c2ccccc2-c2ccc(Cl)cc21
No

Please answer likewise for Cc1cc(C(=O)O)cc(C(=O)O)c1
No

Please answer likewise for C[Si](C)(C)C=C[Si](C)(C)C
Yes

Please answer likewise for Cc1c(N)cccc1C(=O)O
No

Please answer likewise for CCCCC(C(N)=O)n1nnc2ccccc21 (stereo not given)
No

====

reported metric: melting point (°C)
All answers are understood in °C, so give the number only.

Sample COC(=O)c1cc(Cl)c(NC(C)=O)cc1OC — what was its melting point?
155

Please answer likewise for Oc1c(Br)cc(Br)cc1Br
95.5

Please answer likewise for C=CCC1(C2C=CCC2)C(=O)NC(=O)NC1=O (stereo not given)
140

Please answer likewise for N[C@H](Cc1ccc(I)cc1)C(=O)O
251

Please answer likewise for Nc1c(C(=O)Oc2ccccc2)sc2sc(C(=O)Oc3ccccc3)c(N)c12
165

Please answer likewise for C=CCc1ccc(O)cc1
15.8

Please answer likewise for CCCCOC(=O)C(=O)C1C(C)CC2C3CC(F)C4=CC(=O)C=CC4(C)C3C(O)CC21C (stereo not given)
195

Please answer likewise for Oc1cc(C(F)(F)F)nc(S)n1
251

Please answer likewise for Nc1ccc(S(=O)(=O)Nc2ncccn2)cc1
254

Please answer likewise for COc1ccc(C2Nn3c(nnc3-c3ccccc3)S2)cc1 (stereo not given)
160

Please answer likewise for CC=CCC=CCCC(=O)C1OC1C(N)=O (stereo not given)
93.5

Please answer likewise for COc1cccc(F)c1C#N
103

Please answer likewise for Oc1c(I)cc(I)c2cccnc12
210

====

Please go through the items and note down their melting point.
All answers are understood in °C, so give the number only.

Sample CCN(CC)CCNc1ccc(CO)c2sc3ccccc3c(=O)c12 — what was its melting point?
101

Please answer likewise for O=S(=O)(Cl)c1ccccc1F
30

Please answer likewise for CN(CCO)CCO
-21

Please answer likewise for CC(C)C[C@H](N)[C@@H](O)CC(=O)O
209

Please answer likewise for O=C(O)CCCCCl
18

====

// returns label 0 unless melting point is strictly below 100 °C, in which case label 1

Hello, I'm reviewing records and need to know if melting point of C=C1C(=O)C23C4CC5C(C)(C)CCC(OC(C)=O)C5(C(=O)O4)C2C(OC(C)=O)CC1C3O (stereo unspecified) is below 100 °C. Could you check?
label 0

Please answer likewise for CCS(=O)(=O)c1nc2ccccn2c1S(=O)(=O)NC(=O)Nc1nc(OC)cc(OC)n1
label 0

Please answer likewise for CCCCCCCCCCCCCCCCCC(=O)OCCC(C)C
label 1

Please answer likewise for COc1ccc(CC(=O)O)cc1OCc1ccccc1
label 0

Please answer likewise for FC1(F)C(Cl)=C(Cl)C(F)(F)C(F)(F)C1(F)F
label 1

Please answer likewise for COc1cc2c(cc1O)C(Cc1ccc(OC)c(OC)c1)N(C)CC2 (stereo unspecified)
label 0

Please answer likewise for Cc1ccc(C)n1-c1ccccc1C(=O)O
label 0

====

reported metric: melting point (°C)
All answers are understood in °C, so give the number only.

Sample NN=C(/C(=N/N)c1ccc2ccccc2c1)c1ccccc1 — what was its melting point?
163

Please answer likewise for NS(=O)(=O)c1cc2c(s1)C(O)CCS2 (configuration not stated)
158

Please answer likewise for FC(F)(F)C(F)(F)C(Cl)(Cl)Cl
-80

Please answer likewise for Cc1cccc(NC(=O)C(F)(F)C(F)(F)C(F)(F)C(F)(F)C(F)(F)C(F)(F)C(F)(F)C(F)(F)F)c1
97

Please answer likewise for CC12CCC(O)CC1CCC1C2C(O)CC2(C)C(c3ccc(=O)oc3)CCC12O (configuration not stated)
254

Please answer likewise for O=CC(O)C1OC(=O)C(O)C1O (configuration not stated)
178

Please answer likewise for CNC(=O)Sc1ccc(OS(C)(=O)=O)cc1
138

Please answer likewise for O=S(=O)(CCCl)c1ccccc1
54

Please answer likewise for CCS(=O)CCSP(=O)(OC)OC (configuration not stated)
-49

Please answer likewise for O=C1C=C(NCc2cccnc2)C(=O)c2ccccc21
209

Please answer likewise for O=C1c2ccccc2C(=O)C2CC3=C(CC=CC3)CC12 (configuration not stated)
155

====

// returns criterion not met unless melting point is strictly below 90 °C, in which case criterion met

Hello, I'm reviewing records and need to know if melting point of ClCC=Cc1ccccc1 is below 90 °C. Could you check?
criterion met

Please answer likewise for CC(=O)N(C(C)=O)c1ccc(N=Nc2ccccc2C)cc1C
criterion met

Please answer likewise for CC(=O)OCC(OC(C)=O)C(OC1OC(COC(C)=O)C(OC(C)=O)C(OC(C)=O)C1OC(C)=O)C(OC(C)=O)C(C#N)OC(C)=O (stereo unspecified)
criterion not met

Please answer likewise for CCn1cc(C(=O)O)c(=O)c2cc(F)c(N3CCNCC3)nc21
criterion not met

Please answer likewise for C=Cc1ccccc1C(=O)O
criterion not met

Please answer likewise for COc1ccc(C(=O)c2ccccc2C(=O)O)cc1
criterion not met

Please answer likewise for c1cc2[nH]cnc2cn1
criterion not met

Please answer likewise for O=C1CC(c2cccc(C3=NN(c4ccccc4)C(=O)C3)c2)=NN1c1ccccc1
criterion not met

Please answer likewise for CC(=O)c1c(O)c(C(C)(C)C)cc(C(C)(C)C)c1O
criterion not met

Please answer likewise for O=C(O)/C(=C/c1ccccc1F)c1ccccc1
criterion not met

Please answer likewise for COc1c(C)c(C)c(OC)c2c1CC2Cl (stereo unspecified)
criterion not met

Please answer likewise for O=C(Cc1ccccc1)C(=O)Cc1ccccc1
criterion met

Please answer likewise for C=C(C)C(=O)OCCCCCCCCCCCC
criterion met

Please answer likewise for CCCCC(C)C(C)C (stereo unspecified)
criterion met

Please answer likewise for OCC1OC(SCCc2ccccc2)C(O)C(O)C1O (stereo unspecified)
criterion not met

Please answer likewise for CNCCC(Oc1ccc(C(F)(F)F)cc1)c1ccccc1 (stereo unspecified)
criterion not met

Please answer likewise for CCOC(=O)c1c(C)csc1N
criterion met
